The reported measurements were obtained from patent US20250027068.

Biological target: pooled human IgG (human IgG1,2,3 and 4)
Strictly below 100 ng/µL in Enzyme Activity Endpoint Assay (purified): Fc: y. Otherwise: n.

Known results for proteins:
INSERT INTO assay_data (protein, class_label) VALUES
  ('PRT-511 (protein) MITSVWTKGVTPPAKFRKIVDGNIAYYHAPYVANQGWYDITKTFNGKDDLLCGAATAGNMLHWWFDQNKEEIEAYLKKHPEKQKIMFGDQELLDVRKVINTKDSQTNSALFNYFKDKAFPNLSARRLGVMPDLVLDMFINGYYLNVYKTQTTDVNRTYQTKDRRGGIFDAVFTRGDQSKLLTERHDLKNKTLKEISDLIKQELTEGKALGLSHTYANVRINHVINLWGADFDSNGNLEAIYVTDSDSNASIGMKKYFVGVNSAGKVAISAKEIKEDNIGAQVLGLFTLSTGQDIWNQTNLEHHHHHH', 'n'),
  ('PRT-367 (protein) MSQTEDSESLQRLRDIEDFQAEKEKQNVVYTKWLDGVDVKDHDFRKIVDGNSAYYATPLLNGRGWYDINKDFNRDNDKCAAAVAANMFHYWLDRNRDNVDRFLRQNPEKHGIIELPDGQLKLSDFLNTYESDDGYRDKSKLFDFISNNFNGPVWTDKLLDNYINGYAYNYKYGRTIEDSTKNTSKINFFKEVFNEKILTNNHSIRNQNEFSVLLSEALYTGKAIGLSYGPAGLRHSLGHIISVWGADLDADGNVVAIYVTDSDDKKLTIGDERVGLKRYKISTDDEGRLRLTAYEETHNTGGQVRGLWTLDTGKQAWADYFDKTEQTGTDQAEQ', 'n'),
  ('PRT-343 (protein) MTITSVWTKGVTPPTPEDFRENNEDVLHAPYLANQGWYDITKAFDGKDNLLCGAATAGNMLHWWFDQNKEEIERYLKKHPEKQKIIFGNQELFDVKAAIDTKDSQTNSKLFDYFRDKAFPNLSARQLGVMPDLVLDMFINGYYLNLGKTQSTDVNRPYQDKDKRGGIFDAVFTRGDQTTLLTARHDLKNKGLNEISDLIKQELTEGKALALSHTYANVSINHVINLWGADFDAEGELEAIYVTDSDANPSIGMKKYFVGRNAHGKVAISAKKIEGDNIGAQVLGLFTLSTGQDIWQKLS', 'n');

Does the reported Enzyme Activity Endpoint Assay (purified): Fc of the following protein sit strictly below 100 ng/µL? PRT-295 (protein) MVTSVWTKGVTPPADFTQGEDVFHAPYDANQGWYDITKTFNGKDDLLCGAATAGNMLHWWFDQNKEYIEAYLKKHPEKQKIMFGDQELLDVRKAINTKGSQKNSELFNYFRDKAFPNLSARRLGVMPDLVLDMFINGYYLNVTKTQTTDVNRTYQEKDKRGGIFDAVFTRGDQSKLLTSRHDFKEKGLKEISDLIKQELTEGKALGLSHTYANVRISHVINLWGADFDSDGNLKAIYVTDSDSNASIGMKKYFVGVNSSGKVAISAKEIKEDNIGAQVLGLFTLSTGQDIWNQTN n

Does the reported Enzyme Activity Endpoint Assay (purified): Fc of the following protein sit strictly below 100 ng/µL? PRT-366 (protein) MSQTEDSESLQRLRDIEDFQAEKEKQNVVYTKWLDGVDVKDHDFRKIVDGNSAYYATPLLNGRGFYDINKDFNRDNDKCAAAVAANMFHYWLDRNRDNVDRFLRQNPEKHGIIELPDGQLKLSDFLNTYESDDGYRDKSKLFDFISNNFNGPVWTDKLLDNYINGYAYNYKYGRTIEDSTKNTSKINFFKEVFNEKILTNNHSIRNQNEFSVLLSEALYTGKAIGLSYGPAGLRHSLGHIISVWGADLDADGNVVAIYVTDSDDKKLTIGDERVGLKRYKISTDDEGRLRLTAYEETHNTGGQVRGLWTLDTGKQAWADYFDKTEQTGTDQAEQ n

Does the reported Enzyme Activity Endpoint Assay (purified): Fc of the following protein sit strictly below 100 ng/µL? PRT-510 (protein) MITSVWTKGVTPPTDFRKIVDGNIAYYHAPYKAGQGWYDITKAFDGGDDLLCGAATAGNMLHWWFDQNKEEIEAYLKKHPEKQKIMFGDQELLDVRKVINTKDSQTNSALFNYFKDKAFPNLSARRLGVMPDLVLDMFINGYYLNVYKTQTTDVNRTYQTKDRRGGIFDAVFTRGDQSKLLTERHDLKNKTLKEISDLIKQELTEGKALGLSHTYANVRINHVINLWGADFDSNGNLEAIYVTDSDSNASIGMKKYFVGVNSAGKVAISAKEIKEDNIGAQVLGLFTLSTGQDIWNQTNLEHHHHHH y

Does the reported Enzyme Activity Endpoint Assay (purified): Fc of the following protein sit strictly below 100 ng/µL? PRT-352 (protein) MSQTEDSESLQRLRDIEDFQAEKKMQNVVYTKWLDGVDVKDHDFRKIVDGNSAYYATPLLNGRGFYDINKDFNRDSDKCAAAVAANMFHYWLDINRDNVDRFLRQNPEKHGIIELPDGQLKLSDFLNTYESDHGYRDKSKLFDFISENFNGPVWTDKLLDNYINGYAYNSKYGRTIEDPTKNTSKINFFKEVFNEKILTNNHSIRNQNEFSVLLIEALYTGKAIGLSYGPAGLRHGLGHIISVWGADLDADGNVVAIYVTDSDDKKLTIGDERVGLKRYKISTDDENRLRLTAYEETHNTGGQIRGLWTLDTGKYAWADYFDKTEQTGTDQAEQ n

Does the reported Enzyme Activity Endpoint Assay (purified): Fc of the following protein sit strictly below 100 ng/µL? PRT-688 (protein) MQITSVWTKGVTPLTMDDFTINNEDVIHAPYVANQGWYDITKTFNGKDNLLCGAATAGNMLHWWFDQNKEEIERYLKKHPEKQKIIFNNQELFDLKEAINTKDSQTDSKLFNYFRDKAFPNLSARQLGVMPDLVLDMFINGYYLNVFKTQSTDVNRPYDTKDKRGGIFDHVFTRGDQSTLLTARHDLKNKTLKEISDIIKQELTEGKALALSHTYANVSISHVINLWGADFNAEGNLEAIYVTDSDANASIGMKKYYVGVNSHGKVAISAKKIEGENIGAQVLGLFTLSSGKDIWQKLSLEHHHHHH y
